biological target: human MGL from HeLa cells (Homo sapiens (Human), UniProt Q99685); assay: MGL in vitro activity assay ([glycerol-1,3-3H]-oleoyl glycerol hydrolysis, activated carbon filtration); assay type: biochemical; settings: 300 nM [Glycerol-1,3-3H]-oleoyl glycerol, one hour
Sequence (Q99685 whole entry): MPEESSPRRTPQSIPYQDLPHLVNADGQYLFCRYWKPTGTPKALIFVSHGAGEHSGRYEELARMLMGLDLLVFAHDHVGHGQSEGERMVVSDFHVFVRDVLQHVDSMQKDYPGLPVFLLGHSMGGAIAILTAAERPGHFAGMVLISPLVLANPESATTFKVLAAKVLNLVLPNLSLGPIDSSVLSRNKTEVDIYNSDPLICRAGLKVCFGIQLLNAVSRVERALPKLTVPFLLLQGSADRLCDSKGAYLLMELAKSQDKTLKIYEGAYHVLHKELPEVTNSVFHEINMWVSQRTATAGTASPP
observable: pIC50
Give bare numbers, as −log10 of the molar value.

Cc1cc(F)ccc1C1CCC2(CC1)CN(C(=O)[C@H]1C[C@@](C)(O)C1)C2 [Example 357]: 7.54
C[C@]1(O)C[C@@H](C(=O)N2CC3(CCC(c4cccc(C(F)(F)F)c4)C3)C2)C1 (mixture of isomers) [Example 61]: 7.54
C[C@]1(O)C[C@@H](C(=O)N2CC3(CC(Cc4ccccc4OC(F)(F)F)C3)C2)C1 [Example 196]: 8.55
Cc1ccc(C2CC3(C2)CN(C(=O)[C@H]2C[C@@](C)(O)C2)C3)cc1C(F)(F)F [Example 6]: 7.51
Cc1cc(C(F)(F)F)cc(OC2CCC3(CC2)CN(C(=O)[C@H]2C[C@@](C)(O)C2)C3)n1 [Example 447]: 6.96

Fill in pIC50 for each of the 7 molecules listed.
1. C[C@]1(O)C[C@@H](C(=O)N2CC3(CCC(c4ccc(-n5cccn5)cc4)CC3)C2)C1 [Example 346]
2. C[C@]1(O)C[C@@H](C(=O)N2CC3(CC(Cc4ccc5cnn(CC(F)(F)F)c5c4)C3)C2)C1 [Example 307]
3. C[C@]1(O)C[C@@H](C(=O)N2CC3(CCC(c4cn5ccccc5n4)CC3)C2)C1 [Example 391]
4. Cc1cc(C2CC2)cc(C2CCC3(CC2)CN(C(=O)[C@H]2C[C@@](C)(O)C2)C3)c1 [Example 143]
5. CCc1cc(C)cc(C2CCC3(CC2)CN(C(=O)[C@H]2C[C@@](C)(O)C2)C3)c1 [Example 121]
6. Cc1ccccc1OC1CC2(C1)CN(C(=O)[C@H]1C[C@@](C)(O)C1)C2 [Example 238]
7. C[C@]1(O)C[C@@H](C(=O)N2CC3(CCC(Cc4cccc(C5CC5)c4)C3)C2)C1 (mixture of isomers) [Example 201]

1. 6.53
2. 6.37
3. 5.90
4. 8.35
5. 8.13
6. 6.27
7. 8.00

Fill in pIC50 for each of the 4 molecules listed.
1. Cn1ncc2ccc(CC3CC4(C3)CN(C(=O)[C@H]3C[C@@](C)(O)C3)C4)cc21 [Example 215]
2. COc1ccc(Cl)c(OC2CCC3(CC2)CN(C(=O)[C@H]2C[C@@](C)(O)C2)C3)n1 [Example 462]
3. C[C@]1(O)C[C@@H](C(=O)N2CC3(CC(Cc4cccc(C(F)(F)F)n4)C3)C2)C1 [Example 223]
4. C[C@]1(O)C[C@@H](C(=O)N2CC3(CCC(c4ccn5nccc5c4)C3)C2)C1 (mixture of isomers) [Example 97]

1. 7.37
2. 8.17
3. 6.77
4. 6.18

----------
Task for the reader: assign each of the following compounds its reported pIC50.
Target: human MGL from HeLa cells (Homo sapiens (Human))
Experiment: MGL in vitro activity assay ([glycerol-1,3-3H]-oleoyl glycerol hydrolysis, activated carbon filtration)
Conditions: 300 nM [Glycerol-1,3-3H]-oleoyl glycerol, one hour
Description: The assay used to measure the in vitro activity of MGL is adapted from the assay used for another serine hydrolase (FAAH) described in Wilson et al., 2003 (A high-throughput-compatible assay for determining the activity of fatty acid amide hydrolase. Wilson S J, Lovenberg T W, Barbier A J. Anal Biochem. 2003 Jul. 15; 318(2):270-5). […]
Answers are plain numbers, as −log10 of the molar value.

Cc1cccc(CC2CCC3(C2)CN(C(=O)[C@H]2C[C@@](C)(O)C2)C3)c1 (mixture of isomers) [Example 174]: 7.64
C[C@]1(O)C[C@@H](C(=O)N2CC3(CCC(Oc4ccc(C(F)(F)F)nc4)CC3)C2)C1 [Example 424]: 7.00
Cc1cc(C2CCC3(C2)CN(C(=O)[C@H]2C[C@@](C)(O)C2)C3)ccc1C(F)(F)F (mixture of isomers) [Example 67]: 8.77
C[C@]1(O)C[C@@H](C(=O)N2CC3(CC[C@H](c4cccc(C(F)(F)F)c4)C3)C2)C1 (stereo in doubt) [Example 63]: 7.66
COc1cc([C@@H]2CCC3(C2)CN(C(=O)[C@H]2C[C@@](C)(O)C2)C3)ccc1C (stereo in doubt) [Example 18]: 7.19

Fill in pIC50 for each of the 2 compounds listed.
1. CC(C)(C)c1cccc(OC2CCC3(C2)CN(C(=O)[C@H]2C[C@@](C)(O)C2)C3)c1 (mixture of isomers) [Example 243]
2. CC(C)(C)c1cccc(C2CCC3(CCN(C(=O)[C@H]4C[C@@](C)(O)C4)CC3)C2)c1 (mixture of isomers) [Example 38]

7.59
7.70
